# assay_text: ATG_CMV_CIS: Attagene CIS-FACTORIAL HepG2 Assay for human CMV (Internal Marker) (AID 2282928);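 also: endpoint acts as a background internal control marker rather than a target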
# particulars: HepG2 CMV promoter reporter, transcription factor profiling; actives raise or lower the signal
Calls of active or inactive are those of the source. The calls were made as follows: active = hit-call score of the fitted dose curve at least 0.9, where 1 is the maximum; inactive = score below 0.9.
observation_type: outcome

Solved cases below.
>>> recorded_value("Nc1ccc(Cl)cc1Cl")
"inactive"
>>> recorded_value("CC1(C)O[C@@H]2C[C@H]3[C@@H]4C[C@H](F)C5=CC(=O)C=C[C@]5(C)[C@@]4(F)[C@@H](O)C[C@]3(C)[C@]2(C(=O)CO)O1")
"inactive"
>>> recorded_value("O=c1c2ccccc2nnn1CCl")
"inactive"
>>> recorded_value("CCCNC(=O)NS(=O)(=O)c1ccc(Cl)cc1")
"inactive"
>>> recorded_value("O=C1C(N(CO)C(=O)NCO)N(CO)C(=O)N1CO (stereo unspecified)")
"inactive"

// lookup outcome for CC(C)(Oc1ccc(C2CC2(Cl)Cl)cc1)C(=O)O (stereo unspecified)
inactive

----------
# assay_text: ATG_CMV_CIS: Attagene CIS-FACTORIAL HepG2 Assay for human CMV (Internal Marker) (AID 2282928);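 also: endpoint acts as a background internal control marker rather than a target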
# particulars: HepG2 CMV promoter reporter, transcription factor profiling; actives raise or lower the signal
The source made the active and inactive calls. The calls were made as follows: active = hit-call score of the fitted dose curve at least 0.9, where 1 is the maximum; inactive = score below 0.9.
API: response.call in Y (active), N (inactive)

See these solved cases before continuing.
>>> label("CCOC(=O)Cc1cccc2ccccc12")
"N"
>>> label("COC(=O)c1cc(Cl)ccc1[N+](=O)[O-]")
"N"
>>> label("CC1=NN(c2cc(S(=O)(=O)O)ccc2Cl)C(=O)C1N=Nc1ccccc1 (configuration not stated)")
"N"
>>> label("O=c1cc(-c2ccccc2)oc2ccccc12")
"Y"
>>> label("COCCCOCCCOC")
"N"

Outcome? `C1CN(SSN2CCOCC2)CCO1`
N

Next molecule: `Cc1cccc(OCCOc2cccc(C)c2)c1`
N

----------
# Read-out: Vascular endothelial growth factor receptor 2 (Homo sapiens)
# assay_text: BSK_4H_VEGFRII: BioMAP Diversity Plus: 4H Assay for Vascular endothelial growth factor receptor 2 (VEGFR2) Biomarker Activity (AID 2283031)
# particulars: primary human endothelial cells (HUVEC); actives raise or lower the signal
Calls of active or inactive are those of the source. Rule for the calls: active = hit-call score of the fitted dose curve at least 0.9, where 1 is the maximum; inactive = score below 0.9.
// classify into True (active), False (inactive)

Reference set, count: 3
>>> label("C/C=C\\C/C=C/CCCCCCCCOC(C)=O")
"False"
>>> label("CCCCC/C=C\\C/C=C\\CCCCCCCC(=O)OC")
"False"
>>> label("O=C1CCCN1CCO")
"False"

Hi, do you know how `N#[N+]c1ccc2c(S(=O)(=O)[O-])cccc2c1O` came out in this test?
False

Could you do the same for `CCO[Si](CCCN=C=O)(OCC)OCC` , please?
False

Quick one: `CCO[Si](C)(OCC)OCC`
False

Another molecule to check: CC1OC1C1CCC2(C)OC2C1 (stereo not given)
False

Next entry: `CC(C)(c1cc(Br)c(OCCO)c(Br)c1)c1cc(Br)c(OCCO)c(Br)c1`
True

Then this molecule: `c1ccc2c(c1)ccc1cc3c(ccc4ccccc43)cc12`
False

Here is the next molecule: C=CCOCC(O)CCl (stereo not given)
False

Now the same for `O=Nc1ccc(O)cc1`
False

Subsequent entry: `CO[Si](OC)(OC)c1ccccc1`
False

Also `O=C(Nc1ccccc1SSc1ccccc1NC(=O)c1ccccc1)c1ccccc1` , if possible.
False

How about `C=CCOc1c(Br)cc(Br)cc1Br` ?
False

Consider next the molecule `CC(C)C(=O)C(C)C` in the same way.
False
